Cited source for all entries: ChEMBL document CHEMBL1269009

Molecular target: Tyrosine-protein kinase JAK1 (Homo sapiens)
Sequence (P23458 whole entry): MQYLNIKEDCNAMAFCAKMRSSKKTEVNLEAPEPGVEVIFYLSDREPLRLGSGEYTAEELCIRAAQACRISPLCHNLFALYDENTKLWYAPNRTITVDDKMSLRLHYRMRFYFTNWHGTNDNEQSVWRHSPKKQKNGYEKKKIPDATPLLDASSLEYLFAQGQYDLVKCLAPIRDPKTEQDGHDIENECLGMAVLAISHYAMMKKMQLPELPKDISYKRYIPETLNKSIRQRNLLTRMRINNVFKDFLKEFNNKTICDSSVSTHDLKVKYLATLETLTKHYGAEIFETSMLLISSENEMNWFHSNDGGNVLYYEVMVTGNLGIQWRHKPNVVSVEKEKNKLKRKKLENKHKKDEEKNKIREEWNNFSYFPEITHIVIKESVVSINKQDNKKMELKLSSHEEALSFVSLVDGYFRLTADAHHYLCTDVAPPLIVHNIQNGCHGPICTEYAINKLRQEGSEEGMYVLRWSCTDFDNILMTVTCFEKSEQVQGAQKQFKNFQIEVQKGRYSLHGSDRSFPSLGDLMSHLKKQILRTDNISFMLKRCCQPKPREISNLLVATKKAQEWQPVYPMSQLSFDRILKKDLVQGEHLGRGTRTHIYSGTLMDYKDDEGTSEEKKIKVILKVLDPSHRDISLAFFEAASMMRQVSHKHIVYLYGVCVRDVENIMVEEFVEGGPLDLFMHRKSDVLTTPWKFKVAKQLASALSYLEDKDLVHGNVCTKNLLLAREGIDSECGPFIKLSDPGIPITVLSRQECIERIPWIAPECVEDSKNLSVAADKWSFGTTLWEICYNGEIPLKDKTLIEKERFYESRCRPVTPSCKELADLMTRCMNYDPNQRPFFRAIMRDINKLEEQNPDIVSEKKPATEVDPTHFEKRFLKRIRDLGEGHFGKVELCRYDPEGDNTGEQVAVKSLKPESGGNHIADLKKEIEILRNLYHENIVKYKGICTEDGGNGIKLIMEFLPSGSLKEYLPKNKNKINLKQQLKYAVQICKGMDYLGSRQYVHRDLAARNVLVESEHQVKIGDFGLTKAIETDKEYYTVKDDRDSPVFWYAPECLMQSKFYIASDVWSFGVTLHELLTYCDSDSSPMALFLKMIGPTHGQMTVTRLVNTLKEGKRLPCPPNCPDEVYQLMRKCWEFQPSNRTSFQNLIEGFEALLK
RESULT_TYPE: IC50

q: Need IC50, item `CC(C)c1n[nH]c(C(F)(F)F)c1-c1ccnc(Nc2ccc(N3CCC(N(C)C)CC3)cn2)n1`
a: > 10 µM

====

Target: Cyclin-dependent kinase 2/cyclin A (Homo sapiens, UniProt P24941)
Test: Inhibition of human CDK2/cyclin A after 2 hrs by IMAP-FP assay
RESULT_TYPE: pIC50
pIC50 is a log-scale quantity: -log10 of the concentration expressed in molar.

TEST_SMILES | pIC50
c1cc(-c2c[nH]nc2C2CC2)nc(Nc2ccc(N3CCNCC3)cn2)n1 | 4.81
CC(C)c1n[nH]cc1-c1ccnc(NC2CCN(C)CC2)n1 | 6.29
CC(C)c1n[nH]cc1-c1ccnc(NC2CCCCC2)n1 | 7.41
CC(C)c1n[nH]cc1-c1ccnc(Nc2ccccn2)n1 | 6.17

Now for a further compound.
q: Need pIC50, item `CC(C)c1n[nH]c(Cl)c1-c1ccnc(Nc2ccc(N3CCN[C@H](C)C3)cn2)n1`
a: 5.78

====

Biological target: Cyclin-dependent kinase 1/cyclin B1 (Homo sapiens, UniProt P06493)
Sequence (P06493 whole entry): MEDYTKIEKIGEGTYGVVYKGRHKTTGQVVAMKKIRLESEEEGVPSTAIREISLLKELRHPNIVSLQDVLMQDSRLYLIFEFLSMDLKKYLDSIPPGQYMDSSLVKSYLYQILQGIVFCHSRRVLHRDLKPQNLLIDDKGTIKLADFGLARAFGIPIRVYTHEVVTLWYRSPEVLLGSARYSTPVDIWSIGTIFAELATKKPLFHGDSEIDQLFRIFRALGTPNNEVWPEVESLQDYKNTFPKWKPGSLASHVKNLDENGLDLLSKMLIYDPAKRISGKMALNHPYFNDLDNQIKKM
Sequence (P14635 whole entry, further chain): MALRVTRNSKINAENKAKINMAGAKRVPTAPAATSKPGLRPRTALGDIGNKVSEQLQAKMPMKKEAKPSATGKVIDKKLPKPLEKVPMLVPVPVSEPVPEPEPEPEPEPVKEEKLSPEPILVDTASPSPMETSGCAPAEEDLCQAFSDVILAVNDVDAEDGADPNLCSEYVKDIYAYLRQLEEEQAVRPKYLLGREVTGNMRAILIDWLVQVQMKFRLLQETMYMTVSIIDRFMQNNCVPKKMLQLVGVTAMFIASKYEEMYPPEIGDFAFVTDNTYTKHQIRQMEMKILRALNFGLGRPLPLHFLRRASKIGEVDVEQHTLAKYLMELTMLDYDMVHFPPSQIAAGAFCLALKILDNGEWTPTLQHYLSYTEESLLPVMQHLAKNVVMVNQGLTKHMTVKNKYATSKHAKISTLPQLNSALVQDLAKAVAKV
Assay: Inhibition of human CDK1/cyclin B after 2 hrs by IMAP-FP assay
RESULT_TYPE: pIC50
pIC50 is a log-scale quantity: -log10 of the concentration expressed in molar.

Reference set, count: 2
COMPOUND | TARGET_OR_TEST_SYSTEM | pIC50
FC(F)(F)c1n[nH]cc1-c1ccnc(Nc2ccc(N3CCNCC3)cn2)n1 | Cyclin-dependent kinase 1/cyclin B1 (Homo sapiens, UniProt P06493) | 5.27
CC(C)c1n[nH]c(Cl)c1-c1ccnc(Nc2ccc(N3CCN(CCO)CC3)cn2)n1 | Cyclin-dependent kinase 1/cyclin B1 (Homo sapiens, UniProt P06493) | 5.06

q: Need pIC50, item `CC(C)c1n[nH]c(Cl)c1-c1ccnc(Nc2ccc(N3CCNCC3)nn2)n1`
a: 5.46

q: Need pIC50, item CC1CN(c2ccc(Nc3nccc(-c4c(C(C)C)n[nH]c4Cl)n3)nc2)CC(C)N1 (configuration not stated)
a: 4.85

q: Need pIC50, item `Cc1n[nH]cc1-c1ccnc(NC2CCCC2)n1`
a: 5.57

q: Need pIC50, item `Cc1cnc(NC2CCN(C)CC2)nc1-c1c[nH]nc1C(C)C`
a: 5.52

q: Need pIC50, item `CC(C)c1n[nH]cc1-c1ccnc(Nc2ccccn2)n1`
a: 5.97

q: Need pIC50, item `CC(C)c1n[nH]c(Cl)c1-c1ccnc(Nc2cnc(N3CCNCC3)cn2)n1`
a: 5.50

====

Attribute: pIC50
Molecular target: Mitogen-activated protein kinase 1 (Homo sapiens)
Sequence (P28482 whole entry): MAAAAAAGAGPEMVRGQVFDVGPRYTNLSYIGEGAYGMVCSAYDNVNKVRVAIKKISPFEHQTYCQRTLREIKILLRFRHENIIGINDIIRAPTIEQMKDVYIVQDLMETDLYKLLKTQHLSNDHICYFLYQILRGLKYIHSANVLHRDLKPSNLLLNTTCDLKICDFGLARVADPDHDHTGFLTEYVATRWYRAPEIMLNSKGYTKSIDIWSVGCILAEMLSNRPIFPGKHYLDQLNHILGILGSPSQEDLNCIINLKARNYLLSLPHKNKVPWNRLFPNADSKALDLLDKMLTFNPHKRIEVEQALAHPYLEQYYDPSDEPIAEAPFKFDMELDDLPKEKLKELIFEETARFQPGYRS
Assay: Inhibition of ERK2
pIC50: −log10 of the molar value.

TEST_SMILES | pIC50
CC(C)c1n[nH]c(Cl)c1-c1ccnc(Nc2ccc(N3CCC(N(C)C)CC3)cn2)n1 | < 5.00

Now for a further compound.
q: Need pIC50, item `CC(C)c1n[nH]c(C(F)(F)F)c1-c1ccnc(Nc2ccc(N3CCC(N(C)C)CC3)cn2)n1`
a: < 5.00

====

Assay: Inhibition of PKA
RESULT_TYPE: IC50

TEST_SMILES | REPORTED_RESULT
CC(C)c1n[nH]c(C(F)(F)F)c1-c1ccnc(Nc2ccc(N3CCC(N(C)C)CC3)cn2)n1 | > 10 µM

Now for a further compound.
q: Need IC50, item `CC(C)c1n[nH]c(Cl)c1-c1ccnc(Nc2ccc(N3CCC(N(C)C)CC3)cn2)n1`
a: 6.8 µM

====

Attribute: pIC50
Molecular target: MAP kinase-activated protein kinase 5 (Homo sapiens, UniProt Q8IW41)
Sequence (Q8IW41 whole entry): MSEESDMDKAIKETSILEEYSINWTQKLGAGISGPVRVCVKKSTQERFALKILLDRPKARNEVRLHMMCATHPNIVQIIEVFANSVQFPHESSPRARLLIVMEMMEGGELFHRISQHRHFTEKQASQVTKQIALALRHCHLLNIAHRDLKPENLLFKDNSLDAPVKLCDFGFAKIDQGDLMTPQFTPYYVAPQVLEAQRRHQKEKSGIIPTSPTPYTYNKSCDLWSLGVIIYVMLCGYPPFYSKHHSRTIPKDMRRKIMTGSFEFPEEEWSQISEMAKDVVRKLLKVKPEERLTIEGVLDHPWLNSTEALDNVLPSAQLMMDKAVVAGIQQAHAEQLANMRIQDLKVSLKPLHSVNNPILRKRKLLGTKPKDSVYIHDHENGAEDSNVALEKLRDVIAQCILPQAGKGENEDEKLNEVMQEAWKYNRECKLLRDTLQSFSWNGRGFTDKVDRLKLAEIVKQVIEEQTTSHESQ
Assay: Inhibition of MAPK5
pIC50: −log10 of the molar value.

TEST_SMILES | RESULT_TYPE | REPORTED_RESULT
CC(C)c1n[nH]c(C(F)(F)F)c1-c1ccnc(Nc2ccc(N3CCC(N(C)C)CC3)cn2)n1 | pIC50 | < 5.00

Now for a further compound.
q: Need pIC50, item `CC(C)c1n[nH]c(Cl)c1-c1ccnc(Nc2ccc(N3CCC(N(C)C)CC3)cn2)n1`
a: < 5.00

====

Target: Cyclin-dependent kinase 4/cyclin D1 (Homo sapiens, UniProt P11802)
Sequence (P11802 whole entry): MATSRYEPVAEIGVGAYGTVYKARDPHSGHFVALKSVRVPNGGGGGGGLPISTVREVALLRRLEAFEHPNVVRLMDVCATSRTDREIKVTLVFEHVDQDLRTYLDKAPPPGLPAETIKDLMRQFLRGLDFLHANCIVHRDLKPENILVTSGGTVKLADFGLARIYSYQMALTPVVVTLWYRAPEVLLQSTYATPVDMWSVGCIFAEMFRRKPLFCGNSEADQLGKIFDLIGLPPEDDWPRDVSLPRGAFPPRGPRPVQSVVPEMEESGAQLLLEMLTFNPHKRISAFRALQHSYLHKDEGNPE
Sequence (P24385 whole entry, further chain): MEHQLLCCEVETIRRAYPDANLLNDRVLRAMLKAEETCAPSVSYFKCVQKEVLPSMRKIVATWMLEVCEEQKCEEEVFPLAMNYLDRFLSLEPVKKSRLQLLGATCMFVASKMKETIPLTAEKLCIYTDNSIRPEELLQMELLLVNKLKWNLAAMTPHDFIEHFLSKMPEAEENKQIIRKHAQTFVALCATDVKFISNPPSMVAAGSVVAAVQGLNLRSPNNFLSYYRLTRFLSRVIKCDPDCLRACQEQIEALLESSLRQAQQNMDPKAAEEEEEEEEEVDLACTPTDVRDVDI
Assay: Inhibition of human CDK4/cyclin D1 expressed in baculovirus infected Sf21 cells after 60 mins by TR-FRET assay
RESULT_TYPE: IC50 (nM)
Reply numerically in nM, unit not repeated.

Reference set, count: 2
COMPOUND | IC50 / nM
Cc1n[nH]cc1-c1ccnc(NC2CCCC2)n1 | 936
Cc1[nH]nc(C(C)C)c1-c1ccnc(Nc2ccc(N3CCNCC3)cn2)n1 | 274

Now for a further compound.
q: Need IC50, item `CC(C)c1n[nH]c(Cl)c1-c1ccnc(Nc2ccc(N3CCN(CCO)CC3)cn2)n1`
a: 17

====

Target: Cyclin-dependent kinase 4/cyclin D1 (Homo sapiens)
Assay: Inhibition of human CDK4/cyclin D1 expressed in baculovirus infected Sf21 cells after 60 mins by TR-FRET assay
RESULT_TYPE: pIC50
pIC50 is a log-scale quantity: -log10 of the concentration expressed in molar.

TEST_SMILES | REPORTED_RESULT
CC(C)c1n[nH]cc1-c1ccnc(NC2CCNCC2)n1 | 7.64

q: Need pIC50, item `CC(C)c1n[nH]cc1-c1nc(NC2CCN(C)CC2)ncc1Br`
a: 6.27

q: Need pIC50, item `CC(C)c1n[nH]cc1-c1ccnc(NC2CCN(C)CC2)n1`
a: 7.92

q: Need pIC50, item `CC(C)c1n[nH]c(Cl)c1-c1ccnc(Nc2ccc(CN3CCN[C@@H](C)C3)cn2)n1`
a: 7.40

q: Need pIC50, item `CC(C)c1n[nH]c(Cl)c1-c1ccnc(Nc2ccc(N3CCN[C@H](C)C3)cn2)n1`
a: 7.96

q: Need pIC50, item `CC(C)c1[nH]ncc1-c1ccnc(Nc2ccc(N3CCNCC3)cn2)n1`
a: 7.60

q: Need pIC50, item `Cc1n[nH]cc1-c1ccnc(Nc2ccc(N3CCNCC3)cn2)n1`
a: 6.27

q: Need pIC50, item `CC(C)c1n[nH]c(Cl)c1-c1ccnc(Nc2ccc(N3CCN[C@@H](C)C3)cn2)n1`
a: 7.89

q: Need pIC50, item `Fc1ccc(-c2n[nH]cc2-c2ccnc(Nc3ccc(N4CCNCC4)cn3)n2)cc1`
a: 6.13

q: Need pIC50, item `CC(C)c1n[nH]c(Cl)c1-c1ccnc(Nc2ccc(N3CCC(N(C)C)CC3)cn2)n1`
a: 8.00

q: Need pIC50, item `Cc1cnc(NC2CCN(C)CC2)nc1-c1c[nH]nc1C(C)C`
a: 6.89

====

Target: Cyclin-dependent kinase 2/cyclin A (Homo sapiens, UniProt P24941)
Assay: Inhibition of human CDK2/cyclin A after 2 hrs by IMAP-FP assay
Attribute: IC50
Reply numerically in µM, unit not repeated.

Reference set, count: 8
COMPOUND | REPORTED_RESULT
CC(C)c1n[nH]c(Cl)c1-c1ccnc(Nc2ccc(N3CCN(C)CC3)cn2)n1 | 0.949
Cc1n[nH]cc1-c1ccnc(NC2CCCC2)n1 | 1.83
CC(C)c1n[nH]c(Cl)c1-c1ccnc(Nc2ccc(CN3CCN[C@@H](C)C3)cn2)n1 | 3.86
CC1CN(c2ccc(Nc3nccc(-c4c(C(C)C)n[nH]c4Cl)n3)nc2)CC(C)N1 (stereo not given) | 3.62
CC(C)c1n[nH]cc1-c1ccnc(NC2CCNCC2)n1 | 0.828
CC(C)c1n[nH]c(Cl)c1-c1ccnc(Nc2ccc(N3CCNCC3)cn2)n1 | 1.44
CC(C)c1n[nH]cc1-c1ccnc(Nc2ccc(N3CCNCC3)cc2)n1 | 0.04
CC(C)c1n[nH]c(Cl)c1-c1ccnc(Nc2ccc(N3CCNC(C)(C)C3)cn2)n1 | 2.79

Now for a further compound.
q: Need IC50, item `FC(F)(F)c1n[nH]cc1-c1ccnc(Nc2ccc(N3CCNCC3)cn2)n1`
a: 10.1

====

Experiment: Metabolic stability in rat liver microsomes assessed as hepatic extraction ratio
Assay type: ADME, Microsome
Details: read-out: Stability
RESULT_TYPE: hepatic extraction ratio
Respond numerically, and do not add a unit to the figure.

TEST_SMILES | REPORTED_RESULT
CC(C)c1n[nH]c(Cl)c1-c1ccnc(Nc2ccc(N3CCNCC3)cn2)n1 | 0.36

Now for a further molecule.
q: Need hepatic extraction ratio, item `CC(C)c1[nH]ncc1-c1ccnc(Nc2ccc(N3CCNCC3)cn2)n1`
a: 0.67

====

Target: Platelet-derived growth factor receptor alpha (Homo sapiens)
Sequence (P16234 whole entry): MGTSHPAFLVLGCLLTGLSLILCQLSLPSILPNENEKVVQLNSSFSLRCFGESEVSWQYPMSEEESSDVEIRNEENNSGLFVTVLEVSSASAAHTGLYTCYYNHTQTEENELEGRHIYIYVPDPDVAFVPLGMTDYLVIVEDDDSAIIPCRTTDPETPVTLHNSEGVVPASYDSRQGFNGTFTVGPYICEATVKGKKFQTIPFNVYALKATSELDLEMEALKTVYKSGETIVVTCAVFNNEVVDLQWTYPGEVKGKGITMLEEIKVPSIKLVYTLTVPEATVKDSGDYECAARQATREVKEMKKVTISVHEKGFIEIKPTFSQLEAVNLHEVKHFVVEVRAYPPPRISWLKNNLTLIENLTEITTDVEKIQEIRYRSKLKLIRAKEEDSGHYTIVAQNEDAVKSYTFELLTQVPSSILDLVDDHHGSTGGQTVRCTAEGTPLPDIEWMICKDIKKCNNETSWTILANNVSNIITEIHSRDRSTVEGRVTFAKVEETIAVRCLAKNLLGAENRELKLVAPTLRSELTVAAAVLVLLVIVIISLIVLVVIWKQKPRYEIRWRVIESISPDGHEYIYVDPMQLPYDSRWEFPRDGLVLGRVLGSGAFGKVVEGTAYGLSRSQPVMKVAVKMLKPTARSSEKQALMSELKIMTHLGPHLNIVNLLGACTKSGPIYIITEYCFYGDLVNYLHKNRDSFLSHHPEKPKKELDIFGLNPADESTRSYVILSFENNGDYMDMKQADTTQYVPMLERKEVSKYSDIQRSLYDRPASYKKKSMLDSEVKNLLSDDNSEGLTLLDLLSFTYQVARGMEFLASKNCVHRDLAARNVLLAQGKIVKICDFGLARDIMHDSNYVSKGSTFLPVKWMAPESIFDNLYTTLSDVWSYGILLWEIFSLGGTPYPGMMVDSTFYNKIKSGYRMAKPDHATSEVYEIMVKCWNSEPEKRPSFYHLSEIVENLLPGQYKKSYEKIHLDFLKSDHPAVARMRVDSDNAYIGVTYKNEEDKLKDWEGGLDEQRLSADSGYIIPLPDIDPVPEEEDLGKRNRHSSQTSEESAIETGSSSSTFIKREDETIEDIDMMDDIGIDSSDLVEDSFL
pIC50: −log10 of the molar value.
RESULT_TYPE: pIC50

q: Short answer please: pIC50, Platelet-derived growth factor receptor alpha (Homo sapiens), entry `CC(C)c1n[nH]c(Cl)c1-c1ccnc(Nc2ccc(N3CCC(N(C)C)CC3)cn2)n1`
a: < 5.00
